Source listed as paper PMC7957560.

- system.name: recombinant hemagglutinin HA1 subunit (rHA, H5) (Influenza A virus A/Vietnam/1203/2004 …, UniProt Q5EP31 17-346)
- test.method.notes: BLI; rHA immobilized; apparent KD; BLI at 30 C in sodium-potassium phosphate buffer pH 7.4 ([…]
- reported.conditions: protein: commercial; label: none (rHA); 5'-biotin (vHA BLI)
Assignment: determine reported pKd for the given binders.
Answers are plain numbers, as −log10 of the molar value.

| binder | recorded.value |
| --- | --- |
| TTGGGGTTATTTTGGGAGGGCGGGGGTT (structured_DNA) [RHA0385] | 9.22 |
| GGGTGGGTGGGTGGG (structured_DNA) [G7nt-T_T_T] | 9.15 |
| GGGTGGGAGGGTGGG (structured_DNA) [G7nt-T_A_T] | 9.22 |
| GGGTGGGTGGGAGGG (structured_DNA) [G7nt-T_T_A] | 9.10 |

Quick request: pKd for each listed item, please.
1. GGGAGGGTGGGTGGG (structured_DNA) [G7nt-A_T_T]
2. GGGAGGGAGGGAGGG (structured_DNA) [G7nt-A_A_A]

Solution:
1: 9.40; 2: 9.22
